Reported pIC50, human CTPS1 (Homo sapiens (Human)).
pIC50: −log10 of the molar value.

Some compounds with known pIC50 results, for comparison:
>>> print(df.to_string())
                                   compound  reported_result
0  CC(C)Oc1cncc(-c2ccc(C(=O)NCc3cc(NS(=O)(=O)C4CC4)ccn3)cc2)n1           > 7.00
1  CCOc1cncc(-c2ccc3c(c2)CN(C(CC)c2csc(NS(=O)(=O)C4CC4)n2)C3=O)n1 (stereo in doubt) [I-12a]     6.00 to 7.00
2  O=C(NCc1cc(NS(=O)(=O)C2CC2)ccn1)c1ncc(-c2cncc(Cl)c2)s1           > 7.00
3  CCOc1cncc(-c2cnc(C(=O)N[C@@](C)(CCOC)c3cc(NS(=O)(=O)C4CC4)ccn3)s2)n1           > 7.00
4  CCOc1cncc(-c2cnc(C(=O)NC(CCN3CCC3)c3cc(NS(=O)(=O)C4CC4)ccn3)s2)n1 (stereo not shown)           ≤ 6.00
5  CCOc1cncc(-c2cnc(C(=O)NC(COC)c3cc(NS(=O)(=O)C4CC4)ccn3)s2)n1 (stereo not shown)           > 7.00

Now, please, on to the next compound.
Enquiry: Give pIC50 for CCOc1cncc(-c2cnc(C(=O)N[C@H](CN3CCN(C)CC3)c3cc(NS(=O)(=O)C4CC4)ccn3)s2)n1 (single isomer, unassigned) tested on human CTPS1 (Homo sapiens (Human)).
Sequence (P17812 whole entry): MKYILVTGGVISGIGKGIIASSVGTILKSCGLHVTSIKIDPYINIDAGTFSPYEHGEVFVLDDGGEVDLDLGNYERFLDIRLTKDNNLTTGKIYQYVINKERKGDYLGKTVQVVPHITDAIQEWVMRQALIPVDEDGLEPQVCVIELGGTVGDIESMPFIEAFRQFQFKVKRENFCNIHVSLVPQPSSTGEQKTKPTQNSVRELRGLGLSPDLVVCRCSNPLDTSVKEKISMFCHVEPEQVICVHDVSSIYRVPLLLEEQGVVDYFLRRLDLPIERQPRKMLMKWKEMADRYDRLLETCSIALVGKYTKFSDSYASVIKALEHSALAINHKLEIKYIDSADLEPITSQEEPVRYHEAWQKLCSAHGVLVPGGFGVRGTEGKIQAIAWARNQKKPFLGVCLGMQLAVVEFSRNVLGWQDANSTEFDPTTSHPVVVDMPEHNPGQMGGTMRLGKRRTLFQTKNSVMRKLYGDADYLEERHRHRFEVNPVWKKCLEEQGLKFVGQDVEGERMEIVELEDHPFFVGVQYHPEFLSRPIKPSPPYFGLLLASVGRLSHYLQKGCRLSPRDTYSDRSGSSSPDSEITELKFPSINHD
Return: > 7.00
